We begin with a simple list: items and their reported IC50.
SUBJECT OF TEST: T1, AIP (human, UniProt O00170 1-330)
T1 construct: GST-tag-free protein spotted on nitrocellulose; also called nitrocellulose-immobilized AIP; source: E. coli BL21, purified as GST fusion (GSTrap), GST removed with PreScission protease
T1 sequence (looked up): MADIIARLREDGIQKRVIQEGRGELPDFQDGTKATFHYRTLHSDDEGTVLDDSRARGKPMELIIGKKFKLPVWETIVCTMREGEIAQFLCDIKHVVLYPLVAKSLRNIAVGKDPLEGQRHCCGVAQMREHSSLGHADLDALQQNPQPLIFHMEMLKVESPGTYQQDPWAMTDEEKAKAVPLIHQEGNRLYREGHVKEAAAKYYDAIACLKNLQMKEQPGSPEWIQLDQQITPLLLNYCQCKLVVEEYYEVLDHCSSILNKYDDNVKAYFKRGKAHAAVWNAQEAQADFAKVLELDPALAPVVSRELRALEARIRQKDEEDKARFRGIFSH
TEST PROTOCOL: far-Western, overlay or dot blot; GST-tag-free FKBP51 or AIP on nitrocellulose, blocked with 3% BSA in TBS-T, probed 1 h with HRP-conjugated peptide, alone or with increasing concentrations of unlabeled peptide; luminescence quantified; IC50 estimated; n = 3
COND: both partners purified

BINDER	IC50 / µM
AQSLAEDDVE (the 10 C-terminal residues of Tom20; also called Tom20 label-free peptide; unlabeled Tom20 peptide; source: synthetic peptide (Peptide 2.0, Inc.), > 95% purity) [Tom20 peptide]	62
FQNSLLYDLD (the 10 C-terminal residues of DNAAF2; source: synthetic peptide (Peptide 2.0, Inc.), > 95% purity) [DNAAF2 peptide]	8
AEPQSLDGVD (the 10 C-terminal residues of NADSYN1; source: synthetic peptide (Peptide 2.0, Inc.), > 95% purity) [NADSYN1 peptide]	18

Each recorded value in this set is attributed to paper PMC6212638.
